# measured.on: T1, recombinant Ovr110-hFc encoded by Ovr110 Construct 2 (human)
# T1 construct: Captured on plates by goat anti-human IgG Fc; also called Ovr110-hFc (with TM)
# T1 chain: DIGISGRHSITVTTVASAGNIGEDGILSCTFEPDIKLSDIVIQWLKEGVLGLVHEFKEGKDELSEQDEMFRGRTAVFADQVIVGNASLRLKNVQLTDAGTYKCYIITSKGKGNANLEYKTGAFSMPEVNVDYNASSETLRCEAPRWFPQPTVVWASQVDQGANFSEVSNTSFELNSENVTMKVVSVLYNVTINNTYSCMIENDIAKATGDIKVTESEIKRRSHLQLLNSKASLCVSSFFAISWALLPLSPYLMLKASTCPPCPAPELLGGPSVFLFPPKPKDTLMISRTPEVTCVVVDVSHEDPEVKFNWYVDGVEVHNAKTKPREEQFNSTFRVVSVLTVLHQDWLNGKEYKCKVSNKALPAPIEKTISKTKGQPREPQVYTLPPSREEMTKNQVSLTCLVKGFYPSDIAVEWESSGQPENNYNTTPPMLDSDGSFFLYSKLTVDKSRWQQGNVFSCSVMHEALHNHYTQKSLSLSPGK
# assay: competition ELISA; row = unlabeled blocking MAb; competitor = biotinylated detecting MAb Q19.6
Below, each entry is listed with its recorded signal/noise ratio.
Give the figure by itself; no unit, no explanation.

{"binder": "Ovr110.Q23 (antibody, IgG1, V domains shown, Mouse hybridoma MAb; also called Q23.6) VH: QVQLQQSGAELMKPGASVKISCKATGYTFSSYWIEWVKQRPGHGLEWIGEILPGSGITKYNEKFKTKATFTADTSSNTAYMQLSSLTSEDSAVYYCARYYFGSVNFYFDCWGQGTTLTVSS VL: QAVVTQESALTTSPGETVTLTCRSSTGAVTTSNYANWVQEKPDHLFTGLIGGTDNRPPGVPARFSGSLIGDKAALTITGTQTEDEAIYFCALWYSNHWVFGGGTKLTVLG", "signal/noise ratio": 6}

Consider now this further binder.
Fill in: signal/noise ratio of Ovr110.Q11 (antibody, V domains shown, Mouse hybridoma MAb; also called Q11.12.3; Ovr110.Q11.12.3) VH: DVQLQESGPGLVKPSQSLSLTCSVTGYSITSGYFWSWIRQFPGNKLEWMGFISYDGTNSYNPSLKNRISITRDTSKNQFFLRLNSVTKEDTATYYCARKLLWLRFDYWGQGTTLTVSS VL: ENVLTQSPAIMSASPGEKVTMTCSASSSVSYMHWYQQKSSTSPKLWIYDTSKLASGVPGRFSGSGSGNSYSLTISSMEAEDVATYYCFQGSGYPFTFGSGTKLEIKR is ___
1
